targetUnderTest: T1, recombinant, soluble human ASGR-1 (human, UniProt P07306 62-291)
T1 construct: biotinylated in the binning assay; also called soluble huASGR-1; Soluble ASGR-1 (Amgen)
T1 sequence: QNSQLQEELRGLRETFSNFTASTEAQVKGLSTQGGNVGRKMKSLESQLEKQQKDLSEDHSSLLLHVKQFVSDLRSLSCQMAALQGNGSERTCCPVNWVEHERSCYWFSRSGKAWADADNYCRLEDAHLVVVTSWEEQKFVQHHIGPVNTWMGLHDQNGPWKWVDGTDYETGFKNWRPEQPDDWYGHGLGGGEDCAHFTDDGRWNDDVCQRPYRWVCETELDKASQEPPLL
procedureDetails: Octet BLI dissociation, pH 5.6 minus calcium
Description: The relative dissociation of ASGR-1 from antibodies was measured using a label-free assay on an OctetHTX instrument (Fortebio). Antibody samples were captured on anti-HuFc kinetic biosensors (ForteBio cat #18-5064) at 5 ug/mL in assay buffer (10 mM Tris, 0.1% Triton, 150 mM NaCl, 1 mg/mL BSA, 1 mM CaCl2, pH7.4) for three minutes. […] Soluble ASGR-1 (Amgen) at 6 ug/ml in assay buffer was added and association to the antibodies was monitored for two minutes. […]
valueType: % Change Compared to pH 7.4 + Calcium

59F2 (antibody, V domains shown, hybridoma mAb) VH: EVQLVESGGGLVQPGGSLRLSCGASGFTFSSYSMNWVRQAPGKGLEWVSYISGSSNIIYYTDSVKGRFTISRDNAKNSLYLQMNSLRDEDTAVYYCARADTPMVLYFYGMDVWGQGTTVTVSS VL: SYELTQPPSVSVSPGQTASITCSGDKLGDKYASWYQQRPGQSPVLVIYQDNKRPSGIPERFSGSNSGNTATLTISGTQAMDEADYYCQAWDNNTVVFGGGTKLTVL : 74%

Lab note: next binder to report on.
What the record says about 159H8 (antibody, V domains shown, hybridoma mAb) VH: QVQLVESGGGVVQPGRSLRLSCAASGFTFSTYGMHWVRQAPGKGLEWVAVIWYDGSNKYYADSVKGRFTISRDNSKNTLYLQMNSLRAEDTAVYYCARDRVSCSSTSCPYYYYYGMDVWGQGTTVTVSS VL: SYELTQPPSVSVSPGQTASITCSGDKLGDKYVCWYQQKPGQSPVLVIYQDRKRPSGIPERFSGSNSGNTATLTISGTQALDEADYYCQAWGNSSFVVFGGGTKLTVL : % Change Compared to pH 7.4 + Calcium is 26%
